- System: Plasmodium berghei
- Experimental Protocol: Screen against P. berghei liver stage (PbLuc), transformed with Luciferase, at 2uM
- Assay type: functional, HepG2
- Measurement Parameters: tested at 2 uM
The whole screen tested about 68,000 compounds, of which about 2,700 (4%) showed an effect of 50% or more. The entries come from a sample that favours strong results as a whole.
Rule: INHIBITION below 30% gives Criterion met. Equal to or above 30% gives Criterion not met.

Molecule	Class Assignment
Cc1cccc(CN2CCOC3(CCCN(CC(=O)N(C)C)C3)C2)n1 (stereo not given)	Criterion met
COCc1cc(CC2(NCc3ccccc3Cl)COC2)no1	Criterion met
COC(=O)c1ccc(CNC(=O)Nc2ccc(=O)n(C)c2)cc1	Criterion met
CS(=O)(=O)c1ccc(Cl)c(C(=O)NCCC2=CCCCC2)c1	Criterion met
OCC1CCCN1c1cc(NCCc2ccccn2)ncn1 (stereo not given)	Criterion met
Cc1nc(NC(=O)c2c(-n3cnnn3)sc(C)c2C)sc1C	Criterion not met
CCCNC(=O)C1CCN(Cc2csc(CC)n2)CC1	Criterion not met
Brc1cnc(NCCCOCC2CCOC2)nc1 (stereo not given)	Criterion met
CN(C)[C@H]1CCCCN(C(=O)c2cccc(-c3cccc(F)c3)c2)C1	Criterion not met
CC(C)c1noc(OCC(=O)N(C)C(C)C)n1	Criterion met
CN1CCN(C[C@H]2CC[C@@H](Cc3ccc4c(c3)OCO4)O2)CC1	Criterion met
C=C/C=c1\c(=C/C)oc2c(NCc3ccccc3)nc(C)nc12	Criterion not met
Cc1ncsc1C(=O)N(C)Cc1ccncc1	Criterion met
FC(F)(F)CCc1ncnn1-c1ccc2c(c1)OCO2	Criterion met
CO[C@@H]1CCC[C@@H](NC(=O)C(C)(C)c2cccc(F)c2)[C@H]1O	Criterion met
COCCCn1cnnc1C(C)NC(=O)c1[nH]c2ccc(C)cc2c1C (stereo not given)	Criterion met
COCCN1CCC(C(=O)N(C)CCOc2ccc(C)cc2Cl)C1 (stereo not given)	Criterion met
COc1cc2c(cc1CN1CCc3sccc3C1C)OCCO2 (stereo not given)	Criterion met
COc1nc2c(cc1C(=O)N1CC[C@H](CO)[C@@H](O)C1)CCC2	Criterion not met
Cc1ccc(Cl)cc1NC(=O)C1CSc2ncc(C)c(=O)n2C1 (stereo not given)	Criterion not met
Cc1cccc(C(=O)NCc2ccc(CS(N)(=O)=O)cc2)n1	Criterion met
CCC(O)Cn1nc(CCSC)nc1-c1ccc2[nH]ccc2c1 (stereo not given)	Criterion met
Cc1ncsc1CN(Cc1ccccc1)Cc1ccncc1	Criterion not met
COCCN1C[C@H]2CN(C(=O)c3ccc4c(c3)OCO4)CCN2C1=O	Criterion met
O=C(c1ccc2c(c1)[nH]c(=O)n2C1CCC(O)CC1)N1CCOCC1 (stereo not given)	Criterion not met
C=C/C=c1\c(=C/C)oc2c(NCc3ccccc3)nc(CC)nc12	Criterion met
Cc1ccncc1NC(=O)C1CSc2ncc(C)c(=O)n2C1 (stereo not given)	Criterion met
FC(F)C(F)(F)COCc1ncnn1-c1ccc2c(c1)OCO2	Criterion not met
CCN(C)C1CCCc2nc(C)sc21 (stereo not given)	Criterion met
O=C(CCCc1ccccn1)N1CCCC1c1noc(C2CC2)n1 (stereo not given)	Criterion not met
CN1CCN(CCc2ncnn2-c2ccc3c(c2)OCO3)CC1	Criterion not met
Cc1cnc2n(c1=O)CC(C(=O)Nc1ccccc1Cl)CS2 (stereo not given)	Criterion met
CN(C)C(=O)N1CCN(C(=O)CCc2ccccc2)[C@H]2CS(=O)(=O)C[C@H]21	Criterion met
CC(C)c1cncnc1N1CC[C@H](N2CCOCC2)[C@H](CCCO)C1	Criterion not met
Cc1nc(NC(=O)c2c(-n3cnnn3)sc3c2CCCC3)sc1C	Criterion not met
C=C(C)COc1ccccc1C(=O)NCCCc1nnn[nH]1	Criterion met
Cn1cc(C(=O)NCc2cn3c(n2)CN(Cc2ccccn2)CC3)cn1	Criterion not met
FC(F)(F)c1nc(NC2CCc3ncnn3C2)c2ccccc2n1 (stereo not given)	Criterion met
CN(C)S(=O)(=O)N1CCO[C@H]2[C@H](Oc3cccnc3)CC[C@@H]21	Criterion met

Values from ChEMBL document CHEMBL4513216
